# inhibition at 1 µM values compiled below
Target Or System: steroid sulfatase (STS) (Homo sapiens)
Sequence (P08842 22-583): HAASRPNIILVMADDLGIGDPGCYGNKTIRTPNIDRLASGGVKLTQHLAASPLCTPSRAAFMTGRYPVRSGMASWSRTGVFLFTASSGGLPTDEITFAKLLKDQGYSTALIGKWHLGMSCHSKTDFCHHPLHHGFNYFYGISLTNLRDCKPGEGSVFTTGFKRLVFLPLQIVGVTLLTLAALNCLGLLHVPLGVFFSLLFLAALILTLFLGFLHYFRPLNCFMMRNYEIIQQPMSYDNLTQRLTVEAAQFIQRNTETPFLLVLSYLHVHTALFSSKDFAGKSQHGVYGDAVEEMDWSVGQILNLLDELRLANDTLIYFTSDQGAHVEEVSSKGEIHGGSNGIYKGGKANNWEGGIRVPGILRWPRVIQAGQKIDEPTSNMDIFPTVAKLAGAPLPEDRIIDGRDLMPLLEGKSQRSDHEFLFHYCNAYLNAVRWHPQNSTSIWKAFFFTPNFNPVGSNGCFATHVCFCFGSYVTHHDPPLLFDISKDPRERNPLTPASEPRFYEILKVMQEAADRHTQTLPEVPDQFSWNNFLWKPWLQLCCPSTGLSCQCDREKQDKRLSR
Method: STS inhibition in intact MCF-7 breast cancer cells
Format: cell-based
Parameters: endogenous in cells; host or cells: MCF-7 breast cancer cells
Experimental Conditions: MCF7, read-out: % Inhibition of STS Activity in Intact MCF-7 Breast Cancer Cells at 1 μM
State just the number; it will be interpreted in %.

[[record]]
compound = "CCCCCc1cc(=O)oc2cc(OS(N)(=O)=O)ccc12 [compound 10, 4-Pentylcoumarin-7-O-sulfamate]"
property = "inhibition at 1 µM"
result_unit = "%"
readout_value = 92

[[record]]
compound = "CCCCCCCCCCc1c(C)c2ccc(OS(N)(=O)=O)cc2oc1=O [compound 33, 3-Decyl-4-methylcoumarin-7-O-sulfamate]"
property = "inhibition at 1 µM"
result_unit = "%"
readout_value = 99

[[record]]
compound = "CCCCc1cc(=O)oc2cc(OS(N)(=O)=O)ccc12 [compound 9, 4-Butylcoumarin-7-O-sulfamate]"
property = "inhibition at 1 µM"
result_unit = "%"
readout_value = 91


Problem: Returns the measured inhibition at 1 µM for the input compound. Input: CCCCCCCCCc1cc(=O)oc2cc(OS(N)(=O)=O)ccc12 [compound 14, 4-Nonylcoumarin-7-O-sulfamate]
Result: 98

---

Target Or System: steroid sulfatase (STS) (Homo sapiens, UniProt P08842)
Method: STS inhibition in placental microsomes
Type: biochemical
Set-up: a placental microsomal preparation from a sulfatase-positive human placenta from a normal term pregnancy; from tissue; host or cells: human placenta (microsomal preparation)
Experimental Conditions: 10 μM inhibitor; 20 μM E1S
# inhibition at 10 µM values compiled below
State just the number; it will be interpreted in %.

[[record]]
compound = "CCCCCCCc1c(C)c2ccc(OS(N)(=O)=O)cc2oc1=O [compound 30, 3-Heptyl-4-methylcoumarin-7-O-sulfamate]"
readout_value = 99


Problem: Returns the measured inhibition at 10 µM for the input compound. Input: CCCCCCCCc1cc(=O)oc2cc(OS(N)(=O)=O)ccc12 [compound 13, 4-Octylcoumarin-7-O-sulfamate]
Result: 99

Problem: Another compound to look at: NS(=O)(=O)Oc1ccc2c(CCl)cc(=O)oc2c1 [compound 21, 4-Chloromethylcoumarin-7-O-sulfamate]
Result: 94

Problem: Another compound to look at: CCCCCCCCCCCc1cc(=O)oc2cc(OS(N)(=O)=O)ccc12 [compound 16, 4-Undecylcoumarin-7-O-sulfamate]
Result: 97

Problem: Another compound to look at: CCCCCCCCCc1cc(=O)oc2cc(OS(N)(=O)=O)ccc12 [compound 14, 4-Nonylcoumarin-7-O-sulfamate]
Result: 99

Problem: Another compound to look at: CCCCCCCCCCc1cc(=O)oc2cc(OS(N)(=O)=O)ccc12 [compound 15, 4-Decylcoumarin-7-O-sulfamate]
Result: 99

Problem: Another compound to look at: CCCCc1cc(=O)oc2cc(OS(N)(=O)=O)ccc12 [compound 9, 4-Butylcoumarin-7-O-sulfamate]
Result: 98

Problem: Another compound to look at: CCCCCCCCc1c(C)c2ccc(OS(N)(=O)=O)cc2oc1=O [compound 31, 4-Methyl-3-octylcoumarin-7-O-sulfamate]
Result: 99

Problem: Another compound to look at: CCCCCCc1c(C)c2ccc(OS(N)(=O)=O)cc2oc1=O [compound 29, 3-Hexyl-4-methylcoumarin-7-O-sulfamate]
Result: 99

Problem: Another compound to look at: NS(=O)(=O)Oc1ccc2c(CCc3ccccc3)cc(=O)oc2c1 [compound 24, 4-(2-Phenylethyl)coumarin-7-O-sulfamate]
Result: 98

Problem: Another compound to look at: NS(=O)(=O)Oc1ccc2c(Cc3ccccc3)cc(=O)oc2c1 [compound 23, 4-Benzylcoumarin-7-O-sulfamate]
Result: 99

Problem: Another compound to look at: Cc1c(-c2ccccc2)c(=O)oc2cc(OS(N)(=O)=O)ccc12 [compound 40, 4-Methyl-3-phenylcoumarin-7-O-sulfamate]
Result: 99

Problem: Another compound to look at: CCCCCCc1cc(=O)oc2cc(OS(N)(=O)=O)ccc12 [compound 11, 4-Hexylcoumarin-7-O-sulfamate]
Result: 99

Problem: Another compound to look at: CCCCCCCc1cc(=O)oc2cc(OS(N)(=O)=O)ccc12 [compound 12, 4-Heptylcoumarin-7-O-sulfamate]
Result: 99
